target: Somatostatin sst 3 (Homo sapiens); construct: host or cells: CHO-K1; test: Somatostatin sst3 radioligand binding assay; conditions: Table 4; human
Sequence (P32745 whole entry): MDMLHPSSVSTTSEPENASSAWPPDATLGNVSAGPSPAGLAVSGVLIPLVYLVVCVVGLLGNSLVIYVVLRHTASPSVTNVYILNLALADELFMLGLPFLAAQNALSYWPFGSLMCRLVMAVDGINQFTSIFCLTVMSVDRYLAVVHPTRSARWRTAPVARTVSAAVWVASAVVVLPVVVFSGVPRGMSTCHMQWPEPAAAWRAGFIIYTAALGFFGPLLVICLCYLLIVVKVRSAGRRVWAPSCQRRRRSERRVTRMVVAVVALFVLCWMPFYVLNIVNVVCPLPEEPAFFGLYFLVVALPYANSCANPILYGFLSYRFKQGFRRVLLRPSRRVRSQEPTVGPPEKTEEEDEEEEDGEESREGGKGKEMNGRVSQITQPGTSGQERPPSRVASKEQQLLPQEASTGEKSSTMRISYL
pKi: −log10 of the molar value.
Property: pKi

Please review the entries below; each comes with its answer.
Compound	pKi
Cc1ccc(Oc2ccc3c(c2)N(CCCCN)CCC32C(=O)N(C)C(=O)N2Cc2c[nH]c3ccccc23)cc1 (stereo not shown)	5.20
Cc1ccc(Oc2ccc3c(c2)N(CCCCN)CCC32C(=O)N(CCc3c[nH]c4ccccc34)C(=O)N2C)cc1 (stereo not shown)	5.17

(1) Cc1ccc(Oc2ccc3c(c2)N(CCCCN)CCC32C(=O)N(CCc3c[nH]c4ccccc34)C(=O)N2C)cc1C (stereo not shown)
(2) CN1C(=O)N(CCc2c[nH]c3ccccc23)C(=O)C12CCN(CCCCN)c1cc(Oc3ccc4c(c3)OCO4)ccc12 (stereo not shown)
Q) From the items above, decide which of 1 and 2 has the lower pKi reading. Mark your selection by writing its label.
A) 1
(1: 5.15, 2: 5.48)
